Parameter: α2δ binding affinity. Scope: all listed entries.
System: α2δ subunit
testMethodNotes: radioligand binding assay using [3H]gabapentin and the α2δ subunit
studyConditions: [3H]gabapentin radioligand; α2δ subunit from porcine brain tissue
Structures can show the parent of a compound that is named as a salt.
Respond with the bare value in µM.

[
  {
    "compound": "NC[C@]1(CC(=O)O)C[C@H]2CCC[C@H]2C1 [Hydrochloride]",
    "targetOrTestSystem": "α2δ subunit",
    "unitAbbreviation": "µM",
    "α2δ binding affinity": 1.58
  },
  {
    "compound": "NC[C@@]1(CC(=O)O)C[C@H]2CC[C@H]2C1 [hydrochloride]",
    "targetOrTestSystem": "α2δ subunit",
    "unitAbbreviation": "µM",
    "α2δ binding affinity": 0.332
  }
]

Query: Look up α2δ binding affinity with α2δ subunit for this compound: NC[C@]1(CC(=O)O)C[C@H]2CC[C@H]2C1 [Hydrochloride]
Reply: 0.038

Query: What do you have for NC[C@]1(CC(=O)O)C[C@H]2CCCC[C@H]2C1 [hydrochloride] ?
Reply: 0.72

Query: What do you have for NCC1(CC(=O)O)C[C@H]2CC[C@@H]2C1 (racemic) [Hydrochloride] ?
Reply: 2.86

----------
Test system: α2δ subunit
testMethodNotes: radioligand binding assay using [3H]gabapentin and the α2δ subunit
studyConditions: [3H]gabapentin radioligand; α2δ subunit from porcine brain tissue
Where a name gives a salt, the structure may show the parent alone.
recordedEndpoint: α2δ binding affinity

// known answers, use as guide
[
  {
    "compound": "NC[C@@]1(CC(=O)O)C[C@H]2CCCC[C@H]2C1 [Hydrochloride]",
    "measValue": ">10 µM"
  },
  {
    "compound": "NCC1(CC(=O)O)C[C@H]2CCCC[C@@H]2C1 (racemic) [Hydrochloride]",
    "measValue": ">10 µM"
  }
]

Would you kindly look at the next entry?
Query: Which α2δ binding affinity reading was recorded for the compound NCC1(CC(=O)O)C[C@H]2CCC[C@@H]2C1 (racemic) [Hydrochloride] ?
Reply: >10 µM
